- measurement-notes: Apparent permeability across apical to basolateral side in human Caco-2 cells incubated for 2 hrs by LC-MS/MS analysis
- Type: ADME, cell-based
parameter: Papp A→B at 2 h (×10⁻⁶ cm/s)
Provide only the numeric value, understood in ×10⁻⁶ cm/s.

Worked cases, Papp A→B at 2 h given:
>>> assay_value("CC1(C)COC(=O)[C@@H]2C[C@@H](C[C@@H](C#N)NC(=O)[C@@H]3[C@@H]4[C@H](CN3C(=O)[C@H]1NC(=O)C1CC1)C4(C)C)C(=O)N2")
0.08
>>> assay_value("CC1(C)COC(=O)[C@@H]2C[C@@H](C[C@@H](C#N)NC(=O)[C@@H]3[C@@H]4[C@H](CN3C(=O)[C@H]1NC(=O)C(F)(F)C1CC1)C4(C)C)C(=O)N2")
0.13
>>> assay_value("CC1(C)CCOC(=O)[C@@H]2C[C@@H](C[C@@H](C#N)NC(=O)[C@@H]3[C@@H]4[C@H](CN3C(=O)[C@H]1NC(=O)C(F)(F)F)C4(C)C)C(=O)N2")
0.02
>>> assay_value("Cc1cccc(C)c1OCC(=O)N[C@@H]1C(=O)N2C[C@H]3[C@@H]([C@H]2C(=O)N[C@H](C#N)C[C@@H]2C[C@H](NC2=O)C(=O)NCC1(C)C)C3(C)C")
0.13
>>> assay_value("COC(=O)N[C@@H]1C(=O)N2C[C@H]3[C@@H]([C@H]2C(=O)N[C@H](C#N)C[C@@H]2C[C@H](NC2=O)C(=O)OCCC1(C)C)C3(C)C")
0.03

What value of Papp A→B at 2 h has been recorded for this entry: CC1(C)COC(=O)[C@@H]2C[C@@H](C[C@@H](C#N)NC(=O)[C@@H]3[C@@H]4[C@H](CN3C(=O)[C@H]1NC(=O)OCc1ccccc1)C4(C)C)C(=O)N2
0.16

---

- measurement-notes: Efflux ratio of apparent permeability across basolateral to apical side over apical to basolateral side in human Caco-2 cells
- Type: ADME, cell-based
# efflux ratio per record follows
Provide a numeric answer; units are not to be included.

Study these solved cases before continuing.
>>> assay_value("CC1(C)CNC(=O)[C@@H]2C[C@H](C[C@@H](C#N)NC(=O)[C@@H]3[C@@H]4[C@H](CN3C(=O)[C@H]1NC(=O)C(F)(F)F)C4(C)C)C(=O)N2")
10
>>> assay_value("CC1(C)COC(=O)[C@@H]2C[C@@H](C[C@@H](C#N)NC(=O)[C@@H]3[C@@H]4[C@H](CN3C(=O)[C@H]1NC(=O)OCc1ccccc1)C4(C)C)C(=O)N2")
108
>>> assay_value("COC(=O)N[C@@H]1C(=O)N2C[C@H]3[C@@H]([C@H]2C(=O)N[C@H](C#N)C[C@@H]2C[C@H](NC2=O)C(=O)OCCC1(C)C)C3(C)C")
65
>>> assay_value("CC1(C)COC(=O)[C@@H]2C[C@@H](C[C@@H](C#N)NC(=O)[C@@H]3[C@@H]4[C@H](CN3C(=O)[C@H]1NC(=O)OC1CC1)C4(C)C)C(=O)N2")
20
>>> assay_value("CC1(C)CNC(=O)[C@@H]2C[C@H](C[C@@H](C#N)NC(=O)[C@@H]3[C@@H]4[C@H](CN3C(=O)[C@H]1NC(=O)OCc1ccccc1)C4(C)C)C(=O)N2")
103

Here's the next entry for you.
Give the measured efflux ratio of CC1(C)COC(=O)[C@@H]2C[C@@H](C[C@@H](C#N)NC(=O)[C@@H]3[C@@H]4[C@H](CN3C(=O)[C@H]1NC(=O)C(F)(F)C1CC1)C4(C)C)C(=O)N2 .
96.4

---

- Test system: SARS-CoV-2
- measurement-notes: microbe, parasite or virus in culture
- details: Severe acute respiratory syndrome coronavirus 2, Huh-7, 24 h
parameter: EC50 (nM)
# unit: nM | format: bare number

>>> assay_value("CC1(C)CCOC(=O)[C@@H]2C[C@@H](C[C@@H](C#N)NC(=O)[C@@H]3[C@@H]4[C@H](CN3C(=O)[C@H]1NC(=O)C(F)(F)F)C4(C)C)C(=O)N2")
26
>>> assay_value("CC1(C)CNC(=O)[C@@H]2C[C@@H](C[C@@H](C#N)NC(=O)[C@@H]3[C@@H]4[C@H](CN3C(=O)[C@H]1NC(=O)C(F)(F)F)C4(C)C)C(=O)N2")
264

Switching to the query record.
Query the reported EC50 for SARS-CoV-2; item: COC(=O)N[C@@H]1C(=O)N2C[C@H]3[C@@H]([C@H]2C(=O)N[C@H](C#N)C[C@@H]2C[C@@H](CCCCC1(C)C)NC2=O)C3(C)C
100

---

- Test system: SARS-CoV-2
- measurement-notes: microbe, parasite or virus in culture
- details: Severe acute respiratory syndrome coronavirus 2, Huh-7, 24 h
Measured EC50 values are reported for all entries that follow.

Worked cases, EC50 given:
>>> assay_value("CN1CC(C)(C)[C@H](NC(=O)OCc2ccccc2)C(=O)N2C[C@H]3[C@@H]([C@H]2C(=O)N[C@H](C#N)C[C@@H]2C[C@H](NC2=O)C1=O)C3(C)C")
"> 10000 nM"
>>> assay_value("Cc1cccc(C)c1OCC(=O)N[C@@H]1C(=O)N2C[C@H]3[C@@H]([C@H]2C(=O)N[C@H](C#N)C[C@@H]2C[C@H](NC2=O)C(=O)NCC1(C)C)C3(C)C")
"5570 nM"
>>> assay_value("COC(=O)N[C@@H]1C(=O)N2C[C@H]3[C@@H]([C@H]2C(=O)N[C@H](C#N)C[C@@H]2C[C@H](NC2=O)C(=O)OCC1(C)C)C3(C)C")
"52 nM"
>>> assay_value("CC1(C)CNC(=O)[C@@H]2C[C@@H](C[C@@H](C#N)NC(=O)[C@@H]3[C@@H]4[C@H](CN3C(=O)[C@H]1NC(=O)COc1ccc(F)cc1F)C4(C)C)C(=O)N2")
"1550 nM"

Which EC50 value belongs to CC1(C)COC(=O)[C@@H]2C[C@@H](C[C@@H](C#N)NC(=O)[C@@H]3[C@@H]4[C@H](CN3C(=O)[C@H]1NC(=O)C(F)(F)Cc1ccccc1)C4(C)C)C(=O)N2 ?
49 nM

---

- measurement-notes: Metabolic stability in human liver microsomes assessed as half life measured upto 60 mins in presence of NADPH by LC/MS-MS analysis
- Format: ADME, Microsome
parameter: half-life (min)
The response must be a number in min with no trailing unit.

Entry under review: CC1(C)COC(=O)[C@@H]2C[C@@H](C[C@@H](C#N)NC(=O)[C@@H]3[C@@H]4[C@H](CN3C(=O)[C@H]1NC(=O)C(F)(F)c1ccc(F)cc1)C4(C)C)C(=O)N2 . Reported half-life?
6

Can you look up the measured half-life of CC(C)(C)[C@H](NC(=O)C(F)(F)F)C(=O)N1C[C@H]2[C@@H]([C@H]1C(=O)N[C@H](C#N)C[C@@H]1CCNC1=O)C2(C)C for me?
20.6

Need half-life of CC1(C)CNC(=O)[C@@H]2C[C@@H](C[C@@H](C#N)NC(=O)[C@@H]3[C@@H]4[C@H](CN3C(=O)[C@H]1NC(=O)COc1ccc(F)cc1F)C4(C)C)C(=O)N2 , thanks.
6.3

---

// half-life lookup, one value per entry
- measurement-notes: Metabolic stability in human liver S9 fraction assessed as half life measured upto 60 mins by LC/MS-MS analysis
- Type: ADME, subcellular

>>> assay_value("CC1(C)COC(=O)[C@@H]2C[C@@H](C[C@@H](C#N)NC(=O)[C@@H]3[C@@H]4[C@H](CN3C(=O)[C@H]1NC(=O)OC1CC1)C4(C)C)C(=O)N2")
"> 3 h"
>>> assay_value("CC1(C)COC(=O)[C@@H]2C[C@@H](C[C@@H](C#N)NC(=O)[C@@H]3[C@@H]4[C@H](CN3C(=O)[C@H]1NC(=O)C(F)(F)F)C4(C)C)C(=O)N2")
"> 3 h"
>>> assay_value("COC(=O)N[C@@H]1C(=O)N2C[C@H]3[C@@H]([C@H]2C(=O)N[C@H](C#N)C[C@@H]2C[C@H](NC2=O)C(=O)OCC1(C)C)C3(C)C")
"> 3 h"
>>> assay_value("CN1CC(C)(C)[C@H](NC(=O)OCc2ccccc2)C(=O)N2C[C@H]3[C@@H]([C@H]2C(=O)N[C@H](C#N)C[C@@H]2C[C@H](NC2=O)C1=O)C3(C)C")
"0.00283 h"

// moving on: another record for half-life
Query (molecule): CC1(C)COC(=O)[C@@H]2C[C@@H](C[C@@H](C#N)NC(=O)[C@@H]3[C@@H]4[C@H](CN3C(=O)[C@H]1NC(=O)C1CC1)C4(C)C)C(=O)N2 ; field requested: half-life
> 3 h

---

- study-target: Replicase polyprotein 1ab (Severe acute respiratory syndrome coronavirus 2, UniProt P0DTD1)
parameter: pIC50
// pIC50 is dimensionless: -log10 of concentration (M)

Please review the entries below; each comes with its answer.
>>> assay_value("CC1(C)COC(=O)[C@@H]2C[C@@H](C[C@@H](C#N)NC(=O)[C@@H]3[C@@H]4[C@H](CN3C(=O)[C@H]1NC(=O)C(F)(F)c1ccc(F)cc1)C4(C)C)C(=O)N2")
7.66
>>> assay_value("CC1(C)CNC(=O)[C@@H]2C[C@H](C[C@@H](C#N)NC(=O)[C@@H]3[C@@H]4[C@H](CN3C(=O)[C@H]1NC(=O)C(F)(F)F)C4(C)C)C(=O)N2")
7.12

Quick one: pIC50 for CC1(C)CNC(=O)[C@@H]2C[C@@H](C[C@@H](C#N)NC(=O)[C@@H]3[C@@H]4[C@H](CN3C(=O)[C@H]1NC(=O)COc1ccc(F)cc1F)C4(C)C)C(=O)N2 ?
7.15

// lookup pIC50 for CC1(C)COC(=O)[C@@H]2C[C@@H](C[C@@H](C#N)NC(=O)[C@@H]3[C@@H]4[C@H](CN3C(=O)[C@H]1NC(=O)OC1CC1)C4(C)C)C(=O)N2
7.77

Would you kindly share the measured pIC50 for CC1(C)CNC(=O)[C@@H]2C[C@@H](C[C@@H](C#N)NC(=O)[C@@H]3[C@@H]4[C@H](CN3C(=O)[C@H]1NC(=O)C1CC1)C4(C)C)C(=O)N2 ?
7.49

Dear colleague, I am looking for the recorded pIC50 of the following molecule: CC1(C)COC(=O)[C@@H]2C[C@@H](C[C@@H](C#N)NC(=O)[C@@H]3[C@@H]4[C@H](CN3C(=O)[C@H]1NC(=O)CC1CC1)C4(C)C)C(=O)N2
7.68

If you can, please state the reported pIC50 value of CC1(C)CNC(=O)[C@@H]2C[C@H](C[C@@H](C#N)NC(=O)[C@@H]3[C@@H]4[C@H](CN3C(=O)[C@H]1NC(=O)OCc1ccccc1)C4(C)C)C(=O)N2 .
7.92
